Measurement record for Streptococcus uberis; quantity recorded: MIC.
Record the value in µg/mL, omitting the unit from your answer.

molecule: CN1COc2c(N3CC[C@H](Nc4nccs4)C3)c(F)cc3c(=O)c(C(=O)O)cn1c23
targetEntity: Streptococcus uberis
valueUnits: µg/mL
measurement: 0.25

QUERY: Give measured MIC for CN1COc2c(N3CC(N)C(C)(C)C3)c(F)cc3c(=O)c(C(=O)O)cn1c23 (racemic) (Streptococcus uberis).
RESULT: 0.12

QUERY: Give measured MIC for CN1COc2c(N3CCC(C(N)c4nccs4)C3)c(F)cc3c(=O)c(C(=O)O)cn1c23 (stereo not shown) (Streptococcus uberis).
RESULT: 0.12

QUERY: Give measured MIC for CN1COc2c(N3CC[C@@H](NC(=O)C(F)(F)F)C3)c(F)cc3c(=O)c(C(=O)O)cn1c23 (Streptococcus uberis).
RESULT: 0.5

QUERY: Give measured MIC for CN1COc2c(N3CCC(Nc4cnccn4)C3)c(F)cc3c(=O)c(C(=O)O)cn1c23 (stereo not shown) (Streptococcus uberis).
RESULT: 0.06

QUERY: Give measured MIC for CN1COc2c(N3CC[C@H](NC(=O)C(F)(F)F)C3)c(F)cc3c(=O)c(C(=O)O)cn1c23 (Streptococcus uberis).
RESULT: 0.25

###

Measurement record for Escherichia coli; quantity recorded: log10(MIC).
Recorded MIC (log10, µg/mL)

QUERY: For the molecule CN1COc2c(N3CCC(Nc4nncs4)C3)c(F)cc3c(=O)c(C(=O)O)cn1c23 (centres unmarked) [Example 10] , give its reported log10(MIC).
RESULT: -0.60

QUERY: For the molecule CN1COc2c(N3CC[C@H](Nc4nccs4)C3)c(F)cc3c(=O)c(C(=O)O)cn1c23 [Example 18] , give its reported log10(MIC).
RESULT: -0.30

QUERY: For the molecule CN1COc2c(N3CCC(C(O)c4nccs4)C3)c(F)cc3c(=O)c(C(=O)O)cn1c23 (centres unmarked) [Example 38] , give its reported log10(MIC).
RESULT: -0.92

###

Measurement record for Escherichia coli; quantity recorded: MIC.
Record the value in µg/mL, omitting the unit from your answer.

QUERY: Give measured MIC for CN1COc2c(N3CCC(C(N)c4nccs4)C3)c(F)cc3c(=O)c(C(=O)O)cn1c23 (centres unmarked) (Escherichia coli).
RESULT: 0.25

QUERY: Give measured MIC for CN1COc2c(N3CC[C@@H](NC(=O)C(F)(F)F)C3)c(F)cc3c(=O)c(C(=O)O)cn1c23 (Escherichia coli).
RESULT: 0.06

QUERY: Give measured MIC for CN1COc2c(N3CCC(Nc4ccccn4)C3)c(F)cc3c(=O)c(C(=O)O)cn1c23 (centres unmarked) (Escherichia coli).
RESULT: 0.5

QUERY: Give measured MIC for CN1COc2c(N3CCC(NC(=O)C(F)(F)F)C3)c(F)cc3c(=O)c(C(=O)O)cn1c23 (centres unmarked) (Escherichia coli).
RESULT: 0.03

QUERY: Give measured MIC for CN1COc2c(N3CC[C@@H](Nc4nccs4)C3)c(F)cc3c(=O)c(C(=O)O)cn1c23 (Escherichia coli).
RESULT: 0.06

Where do these numbers come from? They come from patent US7713965B2.
